Data origin: paper PMC5700166

Molecular target: GST-Ap-NF-kB RHD (Exaiptasia pallida (Aiptasia), UniProt A0A913YAJ5 2-422)
Sequence: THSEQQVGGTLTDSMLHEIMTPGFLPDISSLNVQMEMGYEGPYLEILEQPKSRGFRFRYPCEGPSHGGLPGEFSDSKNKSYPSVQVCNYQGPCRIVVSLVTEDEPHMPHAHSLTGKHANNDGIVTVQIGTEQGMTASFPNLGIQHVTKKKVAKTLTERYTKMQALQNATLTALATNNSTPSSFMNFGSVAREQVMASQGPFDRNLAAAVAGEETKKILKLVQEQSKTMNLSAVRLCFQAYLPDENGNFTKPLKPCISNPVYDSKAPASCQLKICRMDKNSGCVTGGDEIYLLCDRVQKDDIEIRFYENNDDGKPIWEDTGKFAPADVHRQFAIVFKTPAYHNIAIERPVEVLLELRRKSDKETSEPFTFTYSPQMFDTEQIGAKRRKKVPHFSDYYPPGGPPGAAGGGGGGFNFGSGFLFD
Assay: protein-binding microarray (PBM); PBM: ~300 nM protein, 6 mM HEPES pH 7.8, 80 mM KCl, 0.5 mM EDTA, 0.5 mM EGTA, 6% glycerol, 35 ng/ul poly-dIdC, 1% milk, 1 h, room temperature; Ap Aiptasia and Nv Nematostella (sea anemones) / Co Capsaspora / Aq Amphimedon (sponge) / Dm Drosophila / Hu human; RHD is the Rel homology domain; high values mean tight binding
Conditions: dsDNA, one strand shown
Below, each entry is listed with its recorded binding signal.
outcome_measure: binding signal

sequence_input=CCGATTAACATCAGGGAATTATATGATGTTAATCGGGTCTTGATTCGCTTGACGCTGCTG assayed_target="GST-Ap-NF-kB RHD (Exaiptasia pallida (Aiptasia), UniProt A0A913YAJ5 2-422)" outcome_measure="binding signal" reported_measurement="4.16 z-score"
sequence_input=CCGATTAACATCAAGGGAACCCCTGATGTTAATCGGGTCTTGATTCGCTTGACGCTGCTG assayed_target="GST-Ap-NF-kB RHD (Exaiptasia pallida (Aiptasia), UniProt A0A913YAJ5 2-422)" outcome_measure="binding signal" reported_measurement="5.4 z-score"
sequence_input=CCGATTAACATCAATAAACCCCCTGATGTTAATCGGGTCTTGATTCGCTTGACGCTGCTG assayed_target="GST-Ap-NF-kB RHD (Exaiptasia pallida (Aiptasia), UniProt A0A913YAJ5 2-422)" outcome_measure="binding signal" reported_measurement="7.76 z-score"
sequence_input=CCGATTAACATCAGGAATTCCCATGATGTTAATCGGGTCTTGATTCGCTTGACGCTGCTG assayed_target="GST-Ap-NF-kB RHD (Exaiptasia pallida (Aiptasia), UniProt A0A913YAJ5 2-422)" outcome_measure="binding signal" reported_measurement="6.4 z-score"
sequence_input=CCGATTAACATCAGTAATTCCCATGATGTTAATCGGGTCTTGATTCGCTTGACGCTGCTG assayed_target="GST-Ap-NF-kB RHD (Exaiptasia pallida (Aiptasia), UniProt A0A913YAJ5 2-422)" outcome_measure="binding signal" reported_measurement="4.02 z-score"
sequence_input=CCGATTAACATCAAGCAACCCCCTGATGTTAATCGGGTCTTGATTCGCTTGACGCTGCTG assayed_target="GST-Ap-NF-kB RHD (Exaiptasia pallida (Aiptasia), UniProt A0A913YAJ5 2-422)" outcome_measure="binding signal" reported_measurement="5.23 z-score"
sequence_input=CCGATTAACATCAGGGAGTCCCCTGATGTTAATCGGGTCTTGATTCGCTTGACGCTGCTG assayed_target="GST-Ap-NF-kB RHD (Exaiptasia pallida (Aiptasia), UniProt A0A913YAJ5 2-422)" outcome_measure="binding signal" reported_measurement="10.9 z-score"
sequence_input=CCGATTAACATCAGGCCTCCCCCTGATGTTAATCGGGTCTTGATTCGCTTGACGCTGCTG assayed_target="GST-Ap-NF-kB RHD (Exaiptasia pallida (Aiptasia), UniProt A0A913YAJ5 2-422)" outcome_measure="binding signal" reported_measurement="4.86 z-score"
sequence_input=CCGATTAACATCAGGGATCCCCCTGATGTTAATCGGGTCTTGATTCGCTTGACGCTGCTG assayed_target="GST-Ap-NF-kB RHD (Exaiptasia pallida (Aiptasia), UniProt A0A913YAJ5 2-422)" outcome_measure="binding signal" reported_measurement="12 z-score"
sequence_input=CCGATTAACATCAGGGGAAAGAATGATGTTAATCGGGTCTTGATTCGCTTGACGCTGCTG assayed_target="GST-Ap-NF-kB RHD (Exaiptasia pallida (Aiptasia), UniProt A0A913YAJ5 2-422)" outcome_measure="binding signal" reported_measurement="4.95 z-score"
sequence_input=CCGATTAACATCAGGGAACTACATGATGTTAATCGGGTCTTGATTCGCTTGACGCTGCTG assayed_target="GST-Ap-NF-kB RHD (Exaiptasia pallida (Aiptasia), UniProt A0A913YAJ5 2-422)" outcome_measure="binding signal" reported_measurement="1.52 z-score"
sequence_input=CCGATTAACATCAGGGGGGTTACTGATGTTAATCGGGTCTTGATTCGCTTGACGCTGCTG assayed_target="GST-Ap-NF-kB RHD (Exaiptasia pallida (Aiptasia), UniProt A0A913YAJ5 2-422)" outcome_measure="binding signal" reported_measurement="7.07 z-score"
sequence_input=CCGATTAACATCAAAACAGTCCCTGATGTTAATCGGGTCTTGATTCGCTTGACGCTGCTG assayed_target="GST-Ap-NF-kB RHD (Exaiptasia pallida (Aiptasia), UniProt A0A913YAJ5 2-422)" outcome_measure="binding signal" reported_measurement="4.53 z-score"
sequence_input=CCGATTAACATCAAGGGGATCCCTGATGTTAATCGGGTCTTGATTCGCTTGACGCTGCTG assayed_target="GST-Ap-NF-kB RHD (Exaiptasia pallida (Aiptasia), UniProt A0A913YAJ5 2-422)" outcome_measure="binding signal" reported_measurement="9.22 z-score"
sequence_input=CCGATTAACATCAGGAATAACCCTGATGTTAATCGGGTCTTGATTCGCTTGACGCTGCTG assayed_target="GST-Ap-NF-kB RHD (Exaiptasia pallida (Aiptasia), UniProt A0A913YAJ5 2-422)" outcome_measure="binding signal" reported_measurement="1.87 z-score"
sequence_input=CCGATTAACATCAGAGGATTCCCTGATGTTAATCGGGTCTTGATTCGCTTGACGCTGCTG assayed_target="GST-Ap-NF-kB RHD (Exaiptasia pallida (Aiptasia), UniProt A0A913YAJ5 2-422)" outcome_measure="binding signal" reported_measurement="3.72 z-score"
sequence_input=CCGATTAACATCAAGGAACTCCCTGATGTTAATCGGGTCTTGATTCGCTTGACGCTGCTG assayed_target="GST-Ap-NF-kB RHD (Exaiptasia pallida (Aiptasia), UniProt A0A913YAJ5 2-422)" outcome_measure="binding signal" reported_measurement="3.98 z-score"
sequence_input=CCGATTAACATCAAAATCCCCCATGATGTTAATCGGGTCTTGATTCGCTTGACGCTGCTG assayed_target="GST-Ap-NF-kB RHD (Exaiptasia pallida (Aiptasia), UniProt A0A913YAJ5 2-422)" outcome_measure="binding signal" reported_measurement="9.1 z-score"
sequence_input=CCGATTAACATCAGCTAATTCCCTGATGTTAATCGGGTCTTGATTCGCTTGACGCTGCTG assayed_target="GST-Ap-NF-kB RHD (Exaiptasia pallida (Aiptasia), UniProt A0A913YAJ5 2-422)" outcome_measure="binding signal" reported_measurement="1.96 z-score"
sequence_input=CCGATTAACATCAGAACTCCCCCTGATGTTAATCGGGTCTTGATTCGCTTGACGCTGCTG assayed_target="GST-Ap-NF-kB RHD (Exaiptasia pallida (Aiptasia), UniProt A0A913YAJ5 2-422)" outcome_measure="binding signal" reported_measurement="7.91 z-score"
sequence_input=CCGATTAACATCAGGGAATCCCATGATGTTAATCGGGTCTTGATTCGCTTGACGCTGCTG assayed_target="GST-Ap-NF-kB RHD (Exaiptasia pallida (Aiptasia), UniProt A0A913YAJ5 2-422)" outcome_measure="binding signal" reported_measurement="5.36 z-score"
sequence_input=CCGATTAACATCACAAACCCCCCTGATGTTAATCGGGTCTTGATTCGCTTGACGCTGCTG assayed_target="GST-Ap-NF-kB RHD (Exaiptasia pallida (Aiptasia), UniProt A0A913YAJ5 2-422)" outcome_measure="binding signal" reported_measurement="6.66 z-score"
sequence_input=CCGATTAACATCAGGAAGCTCCCTGATGTTAATCGGGTCTTGATTCGCTTGACGCTGCTG assayed_target="GST-Ap-NF-kB RHD (Exaiptasia pallida (Aiptasia), UniProt A0A913YAJ5 2-422)" outcome_measure="binding signal" reported_measurement="1.2 z-score"
sequence_input=CCGATTAACATCACATGGGAATCTGATGTTAATCGGGTCTTGATTCGCTTGACGCTGCTG assayed_target="GST-Ap-NF-kB RHD (Exaiptasia pallida (Aiptasia), UniProt A0A913YAJ5 2-422)" outcome_measure="binding signal" reported_measurement="1 z-score"
sequence_input=CCGATTAACATCAGGGACTCCCCTGATGTTAATCGGGTCTTGATTCGCTTGACGCTGCTG assayed_target="GST-Ap-NF-kB RHD (Exaiptasia pallida (Aiptasia), UniProt A0A913YAJ5 2-422)" outcome_measure="binding signal" reported_measurement="11.3 z-score"
sequence_input=CCGATTAACATCAGGGTTTCCCATGATGTTAATCGGGTCTTGATTCGCTTGACGCTGCTG assayed_target="GST-Ap-NF-kB RHD (Exaiptasia pallida (Aiptasia), UniProt A0A913YAJ5 2-422)" outcome_measure="binding signal" reported_measurement="3.12 z-score"
sequence_input=CCGATTAACATCAGGGGGGTAGATGATGTTAATCGGGTCTTGATTCGCTTGACGCTGCTG assayed_target="GST-Ap-NF-kB RHD (Exaiptasia pallida (Aiptasia), UniProt A0A913YAJ5 2-422)" outcome_measure="binding signal" reported_measurement="4.07 z-score"
sequence_input=CCGATTAACATCAATAAAGTCCCTGATGTTAATCGGGTCTTGATTCGCTTGACGCTGCTG assayed_target="GST-Ap-NF-kB RHD (Exaiptasia pallida (Aiptasia), UniProt A0A913YAJ5 2-422)" outcome_measure="binding signal" reported_measurement="5.45 z-score"
sequence_input=CCGATTAACATCAGGATTACCCCTGATGTTAATCGGGTCTTGATTCGCTTGACGCTGCTG assayed_target="GST-Ap-NF-kB RHD (Exaiptasia pallida (Aiptasia), UniProt A0A913YAJ5 2-422)" outcome_measure="binding signal" reported_measurement="4.61 z-score"
sequence_input=CCGATTAACATCAAAATAGTCCCTGATGTTAATCGGGTCTTGATTCGCTTGACGCTGCTG assayed_target="GST-Ap-NF-kB RHD (Exaiptasia pallida (Aiptasia), UniProt A0A913YAJ5 2-422)" outcome_measure="binding signal" reported_measurement="7.45 z-score"
sequence_input=CCGATTAACATCACGGGGGAATATGATGTTAATCGGGTCTTGATTCGCTTGACGCTGCTG assayed_target="GST-Ap-NF-kB RHD (Exaiptasia pallida (Aiptasia), UniProt A0A913YAJ5 2-422)" outcome_measure="binding signal" reported_measurement="8.53 z-score"
sequence_input=CCGATTAACATCAGGCAAACCCCTGATGTTAATCGGGTCTTGATTCGCTTGACGCTGCTG assayed_target="GST-Ap-NF-kB RHD (Exaiptasia pallida (Aiptasia), UniProt A0A913YAJ5 2-422)" outcome_measure="binding signal" reported_measurement="3.13 z-score"
sequence_input=CCGATTAACATCAAATCACCCCCTGATGTTAATCGGGTCTTGATTCGCTTGACGCTGCTG assayed_target="GST-Ap-NF-kB RHD (Exaiptasia pallida (Aiptasia), UniProt A0A913YAJ5 2-422)" outcome_measure="binding signal" reported_measurement="4.73 z-score"
sequence_input=CCGATTAACATCAAAATCCCCCGTGATGTTAATCGGGTCTTGATTCGCTTGACGCTGCTG assayed_target="GST-Ap-NF-kB RHD (Exaiptasia pallida (Aiptasia), UniProt A0A913YAJ5 2-422)" outcome_measure="binding signal" reported_measurement="9.02 z-score"
sequence_input=CCGATTAACATCAGGGGCAACCCTGATGTTAATCGGGTCTTGATTCGCTTGACGCTGCTG assayed_target="GST-Ap-NF-kB RHD (Exaiptasia pallida (Aiptasia), UniProt A0A913YAJ5 2-422)" outcome_measure="binding signal" reported_measurement="2.71 z-score"
sequence_input=CCGATTAACATCAAATCTCCCCCTGATGTTAATCGGGTCTTGATTCGCTTGACGCTGCTG assayed_target="GST-Ap-NF-kB RHD (Exaiptasia pallida (Aiptasia), UniProt A0A913YAJ5 2-422)" outcome_measure="binding signal" reported_measurement="8.37 z-score"
